experimental.parameters: pH 6.8
Below is a list of entries, each paired with its recorded aqueous solubility value.
assay.readout: aqueous solubility (µg/mL)

* Cc1csc(CN(C)c2ccnc(N(C)C)n2)n1 | 45.8
* CCc1cc2c(N3CCN(Cc4nccn4C)CC3)ncnc2s1 | 66.8
* CCN(C(C)=O)c1ccc(C)cc1C(=O)O | 34.9
* CC(=O)Nc1ccc(C(=O)N2CCCCC2c2nc(N)ncc2-c2cccc(Cl)c2)cc1 (stereo not given) | 57.5
* CCc1cc2c(N(C)CCO)ncnc2s1 | 40.9

---

experimental.parameters: pH 6.8
Below is a list of entries, each paired with its recorded aqueous solubility value.
assay.readout: aqueous solubility (µg/mL)

• COc1ccc2nc(C)c(C(=O)Nc3ccccc3N3CCCC3)cc2c1 = 8.4
• CCc1nc2cc(-c3c(OC)cccc3OC)ccc2o1 = 19
• O=C(Nc1nc2ccccc2[nH]1)C1CC1c1ccccc1 (centres undefined) = 1.1
• O=c1[nH]nc(CCCN2CCOCC2)n1-c1cccc(Cl)c1 = 40.4
• OC[C@@H](c1ccccc1)n1cc(CCc2ccccc2)nn1 = 14
• CN(CC(N)=O)Cc1cc2c(cc1Br)OCO2 = 69.7
• Cc1ccc(F)cc1CNc1cc(C(=O)N(C)C)ccn1 = 47.4
• CNCC(=O)Nc1cc(Cl)c(OCCOC)c(Cl)c1 = 87.3
• CCN1C(=O)C(=O)N(Cc2sc3ccccc3c2Cl)C1=O = 0.3
• Cc1ccc(-n2c(S)nnc2-c2ccc(O)cc2)c(C)c1 = 28.9
• O=S(=O)(NCC1C2CC3CC(C2)CC1C3)C1CCOCC1 (centres undefined) = 58.2
• Cc1nnc(-c2ccccc2-c2c[nH]nc2C)s1 = 30.9
• CC1(C)OCCn2c1nc1c(N3CCOCC3)nc(-c3cnc(N)nc3)nc12 = 6.44
• CC(C)(C)C(=O)N1CCC(CN2CCCC[C@@H]2CO)CC1 = 50.1
• Cc1nc(NCc2scnc2C)n(C)n1 = 27.7
• O=c1c2cccn2c2ccccc2n1CCCN1CCC(c2ccc(Cl)cc2)CC1 = 19.8
• Cc1ccccc1CSc1ccc(-c2ccccn2)nn1 = 1.75
• COc1ccc(NC(=O)C(C)N2CCCN(c3ccc(C(F)(F)F)cn3)CC2)cc1 (centres undefined) = 19.1
• Cc1cnn(Cc2nnc(-c3ccccc3)s2)c1 = 22.5
• CCC(CC)NC(=O)c1cc(C)nc2onc(C)c12 = 45.5
• CC(C)(C)N1CCCN(C(=O)CNc2ccc(C#N)cc2)CC1 = 50
• Cc1cccn(Cc2cccc(C#N)c2)c1=O = 30.9
• Cn1ccc(CN2C(=O)c3ccccc3C2=O)cc1=O = 50
• NC(=O)C1(Cc2ccc(-c3cccnc3)cc2)CCN(Cc2cccc(Cl)c2)CC1 = 83.8
• Cc1ccccc1CNC(=O)c1ccc(-n2ccnc2)nc1 = 43.6
• Cc1cnn(CC2CC2)c1NC(=O)/C=C/c1ccccc1 = 32.7
• CNC(=O)CCc1nc(-c2ccccn2)no1 = 50.5
• CC(C)c1nc2c(n1C)CCN(C(=O)c1cccc(C(F)(F)F)c1F)C2 = 60.8
• CC(=O)N1CCCN(C(=O)Nc2ccc(N(C)C3CCCCC3)c(F)c2)CC1 = 67.7

---

Below is a list of entries, each paired with its recorded aqueous solubility value.
experimental.parameters: pH 6.8
assay.readout: aqueous solubility (µg/mL)

• CCOC(=O)c1ccc(S(=O)(=O)N2CCc3cc(C(=O)OC)ccc32)cc1 = 0.83
• Cc1ccc(NC(=O)c2nn(-c3ccccc3)nc2C)cc1 = 0.29
• COc1ccc(Cc2cccc(C3CCN(C(=O)C4CCCC4)CC3)n2)cc1 = 25.8
• Fc1cccc(Oc2nnnn2-c2ccccc2)c1 = 13.1
• N#Cc1ccc2nc([C@H]3CCN(C4CCC4)C3)[nH]c2c1 = 50.2
• c1ccc(OCc2cc(CC3(NCc4cnc5ccccc5c4)COC3)no2)cc1 = 13.1
• O=C(COCC1CC1)N1CCCc2ncccc21 = 33.9
• Cc1cc(NC(=O)CCc2cnn(C)c2)c2ccccc2n1 = 43.2
• Cc1ccc2nc(-c3ccc(N(C)C)cc3)[nH]c2c1 = 11.4
• COc1ccc(C2(NCc3cccc4ncccc34)CC2)cc1 = 55.5
• CCN(C(=O)N1CCC(OC2CCOCC2)CC1)C(C)C = 56.1
• CCn1cnnc1C1CCCN(c2ncnc3sc(-c4ccccc4)cc23)C1 (stereo unspecified) = 34.8
• N#Cc1cnn(-c2nc(-c3ccc(Br)s3)cs2)c1N = 1.9
• CCc1c(N)cnn1-c1ccccc1C = 37.1
• Fc1ccccc1CN1CCN(c2ncccn2)CC1 = 36.2
• NC(=O)COc1ccccc1-c1ccccc1 = 39
• CCCn1ccnc1CNc1nc2c(s1)c(C)nn2C = 31
• Cn1cc(C(=O)N2CCC(c3cc(C(F)(F)F)c4c(n3)CCNC4=O)CC2)ccc1=O = 53
• COc1ccccc1-c1cc(NC(=O)c2cccc(N3CCNC3=O)c2)[nH]n1 = 5.95
• Cc1c(C(=O)NC2CCN(CC3CCCCC3)CC2)cnn1C = 48.9
• c1ccc(CCc2n[nH]c(-c3cccc4cnccc34)n2)cc1 = 41.7
• C#CCOc1ccc(C(=O)NN2CCCC2=O)cc1 = 25.3
• O=C(c1sc(N2CCOCC2)nc1-c1ccccc1)N1CCCCC1 = 58.4
• C[C@@H](Oc1cc(-c2cnn(C3CCNCC3)c2)cnc1N)c1c(Cl)ccc(F)c1Cl = 32.5
• O=C(O)c1c(O)c(Cc2ccc(Cl)cc2)nc2c3c(ccc12)CCCC3 = 0.79
• CC(C)(C)c1ccc(C2=NC3(CCNCC3)NC2=O)cc1 = 45

---

experimental.parameters: pH 6.8
Below is a list of entries, each paired with its recorded log10(aqueous solubility) value.
assay.readout: log10(aqueous solubility) (log10 of the value in µg/mL)

- Cn1c(=O)n(C)c2cc(CN3CCC(c4ccc(Cc5ccccc5F)cn4)CC3)ccc21: 1.75
- Nc1nc2ccccc2nc1N1CCCC1: 1.48
- CCCc1cc(-c2nn3c(C4CCCC4)nnc3s2)n(C)n1: 1.13
- Cc1cnc(NC(=O)Cc2coc3cc(C)c(C)cc23)s1: -0.49
- O=C(CN1CCCN(c2nccs2)CC1)Nc1cccc(Cl)c1: 1.57
- CC1=NC(Nc2nc(C)c3ccccc3n2)=NC(C)(C)C1: -0.18
- CCc1nnc(Nc2cccc(C3CCCN(CC(=O)N4CCCC4)C3)n2)s1 (stereo not given): 1.73
- COc1ccccc1-c1nn(-c2ccccc2)cc1CO: 1.29
- Clc1ccc(COc2cccc(N3CCNCC3)c2)cc1: 1.37
- Cc1ccc(C)c(S(=O)(=O)N2CCCN(CCn3cccn3)CC2)c1: 1.48
- CNC(=O)c1cccc(NC(=O)N2CCC(Oc3ccccc3Cl)CC2)c1: 1.84
- C#CCNC(=O)c1cc(C(C)C)nn1CC: 1.45
- Cc1ccc(-n2nc(C(=O)N3CC(O)C3)c3c2CCCC3)cc1: 1.56
- Cc1cc(OCc2ncc(C(C)(C)C)o2)nn1C: 1.27
- O=c1cc(CN2CCCCc3ccccc32)[nH]c2ccnn12: 1.16
- Nc1ccc(C(=O)N2CCOCC2)c(Cl)c1: 1.58
- O=C(NCc1ccccc1)c1ccc(NS(=O)(=O)c2ccc(C3CCCCC3)cc2)cc1: 0.20
- Fc1cccc(Cn2nnc(-c3ccccc3)n2)c1F: -1.00
- Brc1cc2c(cc1Cn1cncn1)OCCCO2: 1.54
- COC(=O)[C@]12CCC(C)(C)CC1C1C(=O)C=C3[C@@]4(C)C=C(C#N)C(=O)C(C)(C)[C@@H]4CC[C@@]3(C)[C@]1(C)CC2 (stereo not given in full): 0.50

---

Below is a list of entries, each paired with its recorded MDR1-MDCK efflux ratio value.
assay.readout: MDR1-MDCK efflux ratio

* Cc1cc(C(=O)Nc2ccc(C)c(C)c2)n(-c2ccccc2)n1 | 0.392
* CCc1ncnc(N(C)Cc2ccc(N)nc2)c1F | 0.635
* CCN(CC)Cc1cccc(/C=C/c2nc3ccc(F)cc3c(=O)n2-c2ccccc2Cl)n1 | 8.43
* CN(Cc1ccccc1Br)C(=O)Nc1ccc(C(=O)N2CCCC2)cc1 | 9.97
* c1ccc(NCc2ccc3c(c2)OCCCO3)nc1 | 0.701
* O=C(NCCc1ccccc1)c1cnccn1 | 0.607
* CC(C)(C)NC(=O)c1cnc(-c2ccc(Cl)s2)s1 | 0.494
* CNc1ncnc2c1ncn2[C@H]1CC[C@H](NC(=O)CCCNC(=O)OC(C)(C)C)[C@H](O)[C@H]1O | 3.2
* c1cc2cc[nH]c2c(CC2CN(C3CCCC3)C2)n1 | 3.21
* CCC(=O)N(C)CC(=O)Nc1cccc(F)c1 | 0.705
* CC(=O)N(C)[C@H]1CC2(CCN(C(=O)COc3cc(C)c(Cl)c(C)c3)CC2)OC[C@]1(C)O | 8.59
* Cc1nc2ncc3c(n2n1)CC(C)(C)CC3=O | 0.814

Source: the Biogen ADME set (Fang et al. 2023)
